# Protocol: Metabolic stability in human liver microsome assessed as compound remaining after 10 mins
# Type: ADME, microsomes
# Test parameters: liver microsomes, read-out: Stability
I'd be grateful if you could share measured remaining at 10 min for these entries.
Answer format: value, then unit.

*Q* Looking for the measured remaining at 10 min of `CN(C)CC(C)(C)COc1ccc(NC(=O)Nc2cccnc2Oc2ccccc2[Si](C)(C)C)cc1` , can you help?
*A* 29%

*Q* Looking for the measured remaining at 10 min of `CN(C)CC(C)(C)COc1ccc(NC(=O)Nc2cccnc2Oc2ccccc2C(C)(C)C)cc1` , can you help?
*A* 12%

----------
I'd be grateful if you could share measured logP for these entries.
# Protocol: Lipophilicity, log P of the compound by RP-HPLC analysis
# Format: physicochemical
Would you mind answering with just the numeric figure?

*Q* Looking for the measured logP of `CC(C)(C)c1ccccc1Oc1ncccc1NC(=O)Nc1ccc(N2CCNCC2)cc1` , can you help?
*A* 3.2

*Q* Looking for the measured logP of `COC(=O)C1(c2ccc(NC(=O)Nc3cccnc3Oc3ccccc3C(C)(C)C)cc2)CC1` , can you help?
*A* 5.1

*Q* Looking for the measured logP of `CC(C)(C)c1ccccc1Oc1ncccc1NC(=O)Nc1ccc(-c2ccccc2CO)cc1F` , can you help?
*A* 5.5

*Q* Looking for the measured logP of `CC(C)(C)c1ccccc1Oc1ncccc1NC(=O)Nc1ccc(N2CCCCC2)cc1` , can you help?
*A* 5.5

*Q* Looking for the measured logP of `CC(C)(C)c1ccccc1Oc1ncccc1NC(=O)Nc1ccc(OC(F)(F)F)cc1` , can you help?
*A* 5.7

----------
# Test system: Plasma
# Protocol: Plasma concentration in rat at 1 mg/kg, iv followed by administered […] of sustaining dose
# Type: ADME, organism-based
# Test parameters: in vivo
Reported property: concentration
Answer format: value, then unit.

*Q* Looking for the measured concentration of `CN(C)Cc1ccccc1-c1ccc(NC(=O)Nc2cccnc2Oc2ccccc2C(C)(C)C)c(F)c1` , can you help?
*A* 1300 nM

----------
# Test system: Plasma
# Protocol: Plasma concentration in rabbit cuticle bleeding model at 15 mg/kg, iv followed by administered 23.4 mg/kg/hr of sustaining dose
# Assay type: ADME, organism-based, Oryctolagus cuniculus
# Test parameters: in vivo
Reported property: concentration

*Q* Quick check: concentration on Plasma, item `CN(C)Cc1ccccc1-c1ccc(NC(=O)Nc2cccnc2Oc2ccccc2C(C)(C)C)c(F)c1` ?
*A* 5 µM

----------
# Protocol: Clearance in rat at 2 mg/kg, iv and 5 mg/kg, po
# Type: ADME, organism-based
# Test parameters: in vivo
Reported property: clearance (mL/min/kg)
Return type: number; implicit unit mL/min/kg.

*Q* Looking for the measured clearance of `CC(C)CN1CCC(COc2ccc(NC(=O)Nc3cccnc3Oc3ccccc3C(C)(C)C)c(F)c2)CC1` , can you help?
*A* 22

----------
# Protocol: Lipophilicity, log P of the compound by RP-HPLC analysis
# Format: physicochemical
Reported property: logP
Would you mind answering with just the numeric figure?

*Q* Looking for the measured logP of `CN(C)Cc1ccc(-c2ccc(NC(=O)Nc3cccnc3Oc3ccccc3C(C)(C)C)c(F)c2)cc1` , can you help?
*A* 5.4

*Q* Looking for the measured logP of `COCC1(c2ccc(NC(=O)Nc3cccnc3Oc3ccccc3C(C)(C)C)cc2)CC1` , can you help?
*A* 5.2

*Q* Looking for the measured logP of `CC(C)(C)c1ccccc1Oc1ncccc1NC(=O)Nc1ccc(N2CCN(Cc3ccccc3)CC2)cc1` , can you help?
*A* 5.8

*Q* Looking for the measured logP of `CN(C)Cc1ccc(NC(=O)Nc2cccnc2Oc2ccccc2C(C)(C)C)c(F)c1` , can you help?
*A* 4.2

*Q* Looking for the measured logP of `CN(C)CC(C)(C)COc1ccc(NC(=O)Nc2cccnc2Oc2ccccc2C(C)(C)C)c(F)c1` , can you help?
*A* 5.2

*Q* Looking for the measured logP of `CC(C)(C)c1ccccc1Oc1ncccc1NC(=O)Nc1ccc(OCC2CCN(Cc3ccccc3)CC2)cc1F` , can you help?
*A* 5.8

*Q* Looking for the measured logP of `CN(C)CC(C)(C)COc1ccc(NC(=O)Nc2cccnc2Oc2ccccc2[Si](C)(C)C)cc1` , can you help?
*A* 4.7

*Q* Looking for the measured logP of `CC(C)(C)c1ccccc1Oc1ncccc1NC(=O)Nc1ccc(C2(CO)CC2)cc1` , can you help?
*A* 4.6

*Q* Looking for the measured logP of `CC(C)(C)c1ccccc1Oc1ncccc1NC(=O)Nc1ccc(N2CCOCC2)cc1F` , can you help?
*A* 4.5

*Q* Looking for the measured logP of `CC(C)N1CCC(COc2ccc(NC(=O)Nc3cccnc3Oc3ccccc3C(C)(C)C)c(F)c2)CC1` , can you help?
*A* 3.8

*Q* Looking for the measured logP of `CC(C)CCN1CCC(COc2ccc(NC(=O)Nc3cccnc3Oc3ccccc3C(C)(C)C)c(F)c2)CC1` , can you help?
*A* 5.5

*Q* Looking for the measured logP of `CN(C)Cc1cccc(-c2ccc(NC(=O)Nc3cccnc3Oc3ccccc3C(C)(C)C)c(F)c2)c1` , can you help?
*A* 5.5

*Q* Looking for the measured logP of `CC(C)CN1CCC(COc2ccc(NC(=O)Nc3cccnc3Oc3ccccc3C(C)(C)C)c(F)c2)CC1` , can you help?
*A* 5.2

*Q* Looking for the measured logP of `CC(C)CN1CCC(COc2ccc(NC(=O)Nc3cccnc3Oc3ccccc3C(C)(C)C)cc2)CC1` , can you help?
*A* 4.5

*Q* Looking for the measured logP of `CN1CCN(c2ccc(NC(=O)Nc3cccnc3Oc3ccccc3C(C)(C)C)cc2)CC1` , can you help?
*A* 3.9

*Q* Looking for the measured logP of `CN(C)Cc1ccccc1-c1ccc(NC(=O)Nc2cccnc2Oc2ccccc2C(C)(C)C)c(F)c1` , can you help?
*A* 5.3

*Q* Looking for the measured logP of `CC(C)(C)c1ccccc1Oc1ncccc1NC(=O)Nc1ccc(C2(CN3CCCC3)CC2)cc1` , can you help?
*A* 3.7

*Q* Looking for the measured logP of `CN(C)CC(C)(C)COc1ccc(NC(=O)Nc2cccnc2Oc2ccccc2C(C)(C)C)cc1` , can you help?
*A* 5.1
